assay.method.text: Bound fraction in mouse plasma
reported.endpoint: fraction bound

mol	reported.result
CC(=O)N/C(N)=N/C(=N/S(=O)(=O)c1ccc(Cl)cc1)N1C[C@H](c2ccccc2)C(c2ccc(Cl)cc2)=N1	1
CC(=O)N/C(N)=N/C(=N/S(=O)(=O)c1ccc(I)cc1)N1C[C@H](c2ccccc2)C(c2ccc(Cl)cc2)=N1	0.998

----------
assay.method.text: Half life in C57BL/6J mouse serum at 10 mg/kg, po by LC-MS/MS analysis
Type: ADME, organism-based

mol	half-life
CC(=O)N/C(N)=N/C(=N/S(=O)(=O)c1ccc(I)cc1)N1C[C@H](c2ccccc2)C(c2ccc(Cl)cc2)=N1	~3 h
CC(=O)N/C(N)=N/C(=N/S(=O)(=O)c1ccc(Cl)cc1)N1C[C@H](c2ccccc2)C(c2ccc(Cl)cc2)=N1	~3 h

----------
tested.system: Cannabinoid receptor 1 (Mus musculus)
Sequence (P47746 whole entry): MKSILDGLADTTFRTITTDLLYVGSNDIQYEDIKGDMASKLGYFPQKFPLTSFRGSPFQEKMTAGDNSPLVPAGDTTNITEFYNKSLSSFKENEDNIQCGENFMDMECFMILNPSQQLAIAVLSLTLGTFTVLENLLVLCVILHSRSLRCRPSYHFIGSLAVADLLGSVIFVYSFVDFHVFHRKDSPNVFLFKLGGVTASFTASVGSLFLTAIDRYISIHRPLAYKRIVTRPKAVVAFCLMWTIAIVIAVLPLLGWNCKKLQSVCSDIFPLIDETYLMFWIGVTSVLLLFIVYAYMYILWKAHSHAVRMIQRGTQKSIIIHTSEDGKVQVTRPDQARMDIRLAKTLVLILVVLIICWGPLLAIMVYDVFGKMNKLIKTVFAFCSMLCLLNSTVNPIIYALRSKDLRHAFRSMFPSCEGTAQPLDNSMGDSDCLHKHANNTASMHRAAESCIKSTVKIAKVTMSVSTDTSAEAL
assay.method.text: Antagonist activity at CB1 receptor in mouse brain membrane assessed as inhibition of […]-induced GTPgammaS binding by [35S]GTPgammaS binding analysis
reported.endpoint: IC50 (nM)

molecule	tested.system	display.unit	reported.result
CC(=O)N/C(N)=N/C(=N/S(=O)(=O)c1ccc(F)cc1)N1CC(c2ccccc2)C(c2ccc(Cl)cc2)=N1 (centres undefined)	Cannabinoid receptor 1 (Mus musculus)	nM	10
CCC(=O)N/C(N)=N/C(=N/S(=O)(=O)c1ccc(Cl)cc1)N1CC(c2ccccc2)C(c2ccc(Cl)cc2)=N1 (centres undefined)	Cannabinoid receptor 1 (Mus musculus)	nM	6
CC(=O)N/C(N)=N/C(=N/S(=O)(=O)c1ccc2ccccc2c1)N1CC(c2ccccc2)C(c2ccc(Cl)cc2)=N1 (centres undefined)	Cannabinoid receptor 1 (Mus musculus)	nM	6.1
CC(=O)N/C(N)=N/C(=N/S(=O)(=O)c1ccc(C)cc1)N1CC(c2ccccc2)C(c2ccc(Cl)cc2)=N1 (centres undefined)	Cannabinoid receptor 1 (Mus musculus)	nM	19
CON(C)/C(N)=N/C(=N/S(=O)(=O)c1ccc(Cl)cc1)N1CC(c2ccccc2)C(c2ccc(Cl)cc2)=N1 (centres undefined)	Cannabinoid receptor 1 (Mus musculus)	nM	21
N/C(=N\C(=N\S(=O)(=O)c1ccc(C(F)(F)F)cc1)N1CC(c2ccccc2)C(c2ccc(Cl)cc2)=N1)NC(=O)c1ccccc1 (centres undefined)	Cannabinoid receptor 1 (Mus musculus)	nM	6.1
N/C(=N\C(=N\S(=O)(=O)c1ccc(I)cc1)N1CC(c2ccccc2)C(c2ccc(Cl)cc2)=N1)NC(=O)c1ccccc1 (centres undefined)	Cannabinoid receptor 1 (Mus musculus)	nM	14
COc1ccc(S(=O)(=O)/N=C(/N=C(\N)NC(=O)c2ccccc2)N2CC(c3ccccc3)C(c3ccc(Cl)cc3)=N2)cc1 (centres undefined)	Cannabinoid receptor 1 (Mus musculus)	nM	68
CC(=O)N/C(N)=N/C(=N/S(=O)(=O)c1ccc(OC(F)(F)F)cc1)N1C[C@H](c2ccccc2)C(c2ccc(Cl)cc2)=N1	Cannabinoid receptor 1 (Mus musculus)	nM	2.1

----------
Each item that follows carries a reported log10(concentration at 1 h).
assay.method.text: Drug uptake in C57BL/6J mouse plasma at 10 mg/kg, po measured after 1 hr by LC-MS/MS analysis
Assay type: ADME, organism-based
reported.endpoint: log10(concentration at 1 h) (log10 of the value in ng/mL)

compound	log10(concentration at 1 h)
CC(=O)N/C(N)=N/C(=N/S(=O)(=O)N1CCC(F)(F)CC1)N1CC(c2ccccc2)C(c2ccc(Cl)cc2)=N1 (stereo not given)	1.41
CC(=O)N/C(N)=N/C(=N/S(=O)(=O)c1ccc(Cl)cc1)N1C[C@H](c2ccccc2)C(c2ccc(Cl)cc2)=N1	3.49
CC(=O)N/C(N)=N/C(=N/S(=O)(=O)c1ccc(I)cc1)N1C[C@H](c2ccccc2)C(c2ccc(Cl)cc2)=N1	3.61
CC(=O)N/C(N)=N/C(=N/S(=O)(=O)N1CCCCC1)N1CC(c2ccccc2)C(c2ccc(Cl)cc2)=N1 (stereo not given)	1.64
CC(=O)N/C(N)=N/C(=N/S(=O)(=O)N1CCC(C(F)(F)F)CC1)N1CC(c2ccccc2)C(c2ccc(Cl)cc2)=N1 (stereo not given)	1.45

----------
assay.method.text: Half life in human
Format: ADME
reported.endpoint: half-life

mol	reported.endpoint	reported.result
CC(=O)N/C(N)=N/C(=N/S(=O)(=O)c1ccc(Cl)cc1)N1C[C@H](c2ccccc2)C(c2ccc(Cl)cc2)=N1	half-life	8.1 min
CC(=O)N/C(N)=N/C(=N/S(=O)(=O)c1ccc(I)cc1)N1C[C@H](c2ccccc2)C(c2ccc(Cl)cc2)=N1	half-life	7.6 min

----------
assay.method.text: Half life in mouse
Format: ADME, organism-based
condition.set: in vivo

mol	half-life
CC(=O)N/C(N)=N/C(=N/S(=O)(=O)c1ccc(Cl)cc1)N1C[C@H](c2ccccc2)C(c2ccc(Cl)cc2)=N1	7.3 min
CC(=O)N/C(N)=N/C(=N/S(=O)(=O)c1ccc(I)cc1)N1C[C@H](c2ccccc2)C(c2ccc(Cl)cc2)=N1	8 min

----------
tested.system: Cannabinoid receptor 2 (Homo sapiens)
Sequence (P34972 whole entry): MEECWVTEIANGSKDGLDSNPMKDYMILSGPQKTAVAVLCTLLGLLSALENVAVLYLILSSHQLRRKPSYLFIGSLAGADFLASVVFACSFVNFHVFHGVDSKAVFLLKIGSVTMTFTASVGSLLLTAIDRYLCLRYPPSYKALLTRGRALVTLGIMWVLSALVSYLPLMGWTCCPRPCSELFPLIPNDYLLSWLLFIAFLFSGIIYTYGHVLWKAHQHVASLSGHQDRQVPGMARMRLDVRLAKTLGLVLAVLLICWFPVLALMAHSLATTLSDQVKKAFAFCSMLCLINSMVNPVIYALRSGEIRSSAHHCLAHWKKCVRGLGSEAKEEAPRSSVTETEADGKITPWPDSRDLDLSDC
assay.method.text: Displacement of [3H][…] from CB2 receptor (unknown origin) expressed in CHO-K1 cells by radioligand displacement analysis
Format: cell-based
pKi: −log10 of the molar value.

mol	pKi
CC(=O)N/C(N)=N/C(=N/S(=O)(=O)c1ccc(OC(F)(F)F)cc1)N1C[C@H](c2ccccc2)C(c2ccc(Cl)cc2)=N1	6.64

----------
Below is a list of entries, each paired with its recorded Tmax value.
assay.method.text: Tmax in C57BL/6J mouse serum at 10 mg/kg, po by LC-MS/MS analysis
Format: ADME, organism-based

mol	display.unit	Tmax
CC(=O)N/C(N)=N/C(=N/S(=O)(=O)c1ccc(I)cc1)N1C[C@H](c2ccccc2)C(c2ccc(Cl)cc2)=N1	h	1
CC(=O)N/C(N)=N/C(=N/S(=O)(=O)c1ccc(Cl)cc1)N1C[C@H](c2ccccc2)C(c2ccc(Cl)cc2)=N1	h	1

----------
assay.method.text: Drug uptake in C57BL/6J mouse plasma at 10 mg/kg, po measured after 1 hr by LC-MS/MS analysis
Format: ADME, organism-based
reported.endpoint: concentration at 1 h (ng/mL)

molecule	reported.result
CC(C)(C)OC(=O)N/C(N)=N/C(=N/S(=O)(=O)c1ccc(Cl)cc1)N1CC(c2ccccc2)C(c2ccc(Cl)cc2)=N1 (centres undefined)	2260
CON(C)/C(N)=N/C(=N/S(=O)(=O)c1ccc(Cl)cc1)N1CC(c2ccccc2)C(c2ccc(Cl)cc2)=N1 (centres undefined)	728
CC(=O)N/C(N)=N/C(=N/S(=O)(=O)c1ccc2ccccc2c1)N1C[C@H](c2ccccc2)C(c2ccc(Cl)cc2)=N1	194
N/C(=N\C(=N\S(=O)(=O)c1ccc(Cl)cc1)N1CC(c2ccccc2)C(c2ccc(Cl)cc2)=N1)n1cccn1 (centres undefined)	1250

----------
tested.system: AMP-activated protein kinase (AMPK) alpha-1/beta-1/gamma-1 (Homo sapiens) (UniProt P54619+Q9Y478+Q13131)
Sequence (P54619 whole entry): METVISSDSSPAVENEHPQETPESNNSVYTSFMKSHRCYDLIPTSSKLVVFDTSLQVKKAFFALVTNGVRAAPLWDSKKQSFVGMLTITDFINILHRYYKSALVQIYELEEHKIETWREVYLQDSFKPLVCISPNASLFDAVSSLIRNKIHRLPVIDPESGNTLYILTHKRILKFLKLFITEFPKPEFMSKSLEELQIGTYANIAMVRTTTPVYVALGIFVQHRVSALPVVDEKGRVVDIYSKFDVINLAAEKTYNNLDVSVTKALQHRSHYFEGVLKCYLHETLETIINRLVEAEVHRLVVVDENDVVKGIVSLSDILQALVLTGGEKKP
Sequence (Q13131 whole entry partner): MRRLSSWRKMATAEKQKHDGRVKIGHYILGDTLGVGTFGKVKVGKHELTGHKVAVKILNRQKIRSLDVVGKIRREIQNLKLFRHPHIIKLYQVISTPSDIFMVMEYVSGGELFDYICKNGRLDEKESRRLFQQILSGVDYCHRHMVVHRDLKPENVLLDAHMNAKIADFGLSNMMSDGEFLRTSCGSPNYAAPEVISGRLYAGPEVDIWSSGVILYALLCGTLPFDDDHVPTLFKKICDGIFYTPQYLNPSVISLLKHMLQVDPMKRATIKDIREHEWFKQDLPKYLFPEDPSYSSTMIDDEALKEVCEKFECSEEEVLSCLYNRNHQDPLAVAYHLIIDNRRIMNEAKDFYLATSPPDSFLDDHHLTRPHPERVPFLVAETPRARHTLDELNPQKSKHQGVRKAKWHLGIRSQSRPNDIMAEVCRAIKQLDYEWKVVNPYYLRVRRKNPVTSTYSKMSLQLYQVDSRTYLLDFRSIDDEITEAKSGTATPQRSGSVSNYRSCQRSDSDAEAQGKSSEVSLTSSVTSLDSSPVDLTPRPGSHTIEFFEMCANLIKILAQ
Sequence (Q9Y478 2-270 partner limits assumed): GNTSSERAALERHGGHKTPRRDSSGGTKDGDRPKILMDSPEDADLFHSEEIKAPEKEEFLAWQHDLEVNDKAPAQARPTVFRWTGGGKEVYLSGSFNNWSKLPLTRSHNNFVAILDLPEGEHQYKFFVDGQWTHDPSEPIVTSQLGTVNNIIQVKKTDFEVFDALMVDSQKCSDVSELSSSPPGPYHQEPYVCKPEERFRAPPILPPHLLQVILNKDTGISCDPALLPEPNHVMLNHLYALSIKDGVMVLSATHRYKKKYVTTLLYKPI
assay.method.text: Activation of recombinant AMPK alpha1/beta1/gamma1 (unknown origin) at 10 uM relative to control
Type: protein-complex assay
condition.set: filed as activator
Listed next: entries and their corresponding Activity.

compound	Activity, %
N/C(=N\C(=N\S(=O)(=O)c1ccc(Cl)cc1)N1CC(c2ccccc2)C(c2ccc(Cl)cc2)=N1)n1cccn1 (configuration not stated)	92
CN(Cc1ccccc1)/C(N)=N/C(=N/S(=O)(=O)c1ccc(Cl)cc1)N1CC(c2ccccc2)C(c2ccc(Cl)cc2)=N1 (configuration not stated)	153
N/C(=N\C(=N\S(=O)(=O)c1ccc(Cl)cc1)N1CC(c2ccccc2)C(c2ccc(Cl)cc2)=N1)N1CCCC1 (configuration not stated)	135
CC(C)N/C(N)=N/C(=N/S(=O)(=O)c1ccc(Cl)cc1)N1CC(c2ccccc2)C(c2ccc(Cl)cc2)=N1 (configuration not stated)	145
N/C(=N\C(=N\S(=O)(=O)c1ccc(Cl)cc1)N1CC(c2ccccc2)C(c2ccc(Cl)cc2)=N1)N1CCCCC1 (configuration not stated)	166
CCCCN(CC)/C(N)=N/C(=N/S(=O)(=O)c1ccc(Cl)cc1)N1CC(c2ccccc2)C(c2ccc(Cl)cc2)=N1 (configuration not stated)	172
CON(C)/C(N)=N/C(=N/S(=O)(=O)c1ccc(Cl)cc1)N1CC(c2ccccc2)C(c2ccc(Cl)cc2)=N1 (configuration not stated)	137

----------
tested.system: Voltage-gated inwardly rectifying potassium channel KCNH2 (Homo sapiens, UniProt Q12809)
Sequence (Q12809 whole entry): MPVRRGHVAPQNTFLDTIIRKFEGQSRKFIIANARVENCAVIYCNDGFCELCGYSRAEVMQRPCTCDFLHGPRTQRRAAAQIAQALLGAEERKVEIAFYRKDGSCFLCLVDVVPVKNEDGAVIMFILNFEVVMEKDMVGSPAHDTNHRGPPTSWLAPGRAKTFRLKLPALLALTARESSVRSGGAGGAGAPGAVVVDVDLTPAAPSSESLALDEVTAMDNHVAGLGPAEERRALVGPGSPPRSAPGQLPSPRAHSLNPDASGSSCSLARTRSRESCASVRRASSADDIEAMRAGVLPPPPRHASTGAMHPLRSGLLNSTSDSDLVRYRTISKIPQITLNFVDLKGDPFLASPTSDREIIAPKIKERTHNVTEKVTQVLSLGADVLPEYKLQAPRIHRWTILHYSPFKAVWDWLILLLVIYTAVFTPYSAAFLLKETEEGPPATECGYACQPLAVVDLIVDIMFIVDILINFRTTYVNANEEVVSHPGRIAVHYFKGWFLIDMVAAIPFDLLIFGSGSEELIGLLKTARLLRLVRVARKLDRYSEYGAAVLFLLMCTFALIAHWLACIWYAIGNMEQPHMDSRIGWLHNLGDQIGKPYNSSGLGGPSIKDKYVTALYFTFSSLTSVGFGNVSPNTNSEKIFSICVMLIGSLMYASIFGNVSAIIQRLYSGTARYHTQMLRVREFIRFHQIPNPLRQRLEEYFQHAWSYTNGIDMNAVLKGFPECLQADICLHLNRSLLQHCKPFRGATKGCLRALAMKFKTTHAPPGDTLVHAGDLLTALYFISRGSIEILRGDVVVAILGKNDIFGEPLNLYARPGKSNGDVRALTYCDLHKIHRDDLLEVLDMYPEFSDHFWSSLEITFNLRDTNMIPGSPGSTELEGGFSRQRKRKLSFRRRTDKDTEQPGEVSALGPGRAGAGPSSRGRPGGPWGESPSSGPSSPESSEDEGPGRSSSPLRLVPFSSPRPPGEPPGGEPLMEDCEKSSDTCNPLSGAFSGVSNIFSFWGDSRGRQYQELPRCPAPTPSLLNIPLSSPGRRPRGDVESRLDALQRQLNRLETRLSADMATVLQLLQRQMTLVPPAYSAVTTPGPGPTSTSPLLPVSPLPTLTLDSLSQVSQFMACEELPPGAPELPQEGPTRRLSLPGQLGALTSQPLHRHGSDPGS

mol	tested.system	IC50
CC(=O)N/C(N)=N/C(=N/S(=O)(=O)c1ccc(Cl)cc1)N1C[C@H](c2ccccc2)C(c2ccc(Cl)cc2)=N1	Voltage-gated inwardly rectifying potassium channel KCNH2 (Homo sapiens, UniProt Q12809)	> 100 µM

----------
tested.system: AMP-activated protein kinase (AMPK) alpha-1/beta-1/gamma-1 (Homo sapiens) (UniProt P54619+Q9Y478+Q13131)
assay.method.text: Activation of recombinant AMPK alpha1/beta1/gamma1 (unknown origin) at 10 uM relative to control
Format: protein-complex assay
condition.set: filed as activator

molecule	display.unit	Activity
CN/C(N)=N/C(=N/S(=O)(=O)c1ccc(Cl)cc1)N1CC(c2ccccc2)C(c2ccc(Cl)cc2)=N1 (stereo not drawn)	%	139
COCCN/C(N)=N/C(=N/S(=O)(=O)c1ccc(Cl)cc1)N1CC(c2ccccc2)C(c2ccc(Cl)cc2)=N1 (stereo not drawn)	%	156
CC(=O)N/C(N)=N/C(=N/S(=O)(=O)c1ccc(OC(F)(F)F)cc1)N1C[C@H](c2ccccc2)C(c2ccc(Cl)cc2)=N1	%	120
CC(=O)N/C(N)=N/C(=N/S(=O)(=O)c1ccc(Cl)cc1)N1C[C@H](c2ccccc2)C(c2ccc(Cl)cc2)=N1	%	134
CCN(CC)/C(N)=N/C(=N/S(=O)(=O)c1ccc(Cl)cc1)N1CC(c2ccccc2)C(c2ccc(Cl)cc2)=N1 (stereo not drawn)	%	113
N/C(=N\C(=N\S(=O)(=O)c1ccc(Cl)cc1)N1CC(c2ccccc2)C(c2ccc(Cl)cc2)=N1)NCc1ccccc1 (stereo not drawn)	%	149
CCCN(CCC)/C(N)=N/C(=N/S(=O)(=O)c1ccc(Cl)cc1)N1CC(c2ccccc2)C(c2ccc(Cl)cc2)=N1 (stereo not drawn)	%	175
Cc1c(C(=O)NN2CCCCC2)nn(-c2ccc(Cl)cc2Cl)c1-c1ccc(Cl)cc1 [RIMONABANT]	%	101

The reported measurements were obtained from ChEMBL document CHEMBL5365437.
